OBSERVATION TYPE: logP

{"MOLECULE": "CC12CCC3c4ccc(O)cc4CCC3C1CC(F)C2O (stereo unspecified)", "OBSERVATION TYPE": "logP", "RECORDED VALUE": 2.98}

---

Here the recorded logP is given for each entry.
# ASSAY NOTES: method code RP-HPLC, from DOI: 10.1021/jm970292n, PMID: 9371243

{"SMILES CODE": "CC(=O)Oc1cccc2cc3cccc(OC(C)=O)c3c(OC(C)=O)c12", "logP": 2.02}
{"SMILES CODE": "O=C1c2c(O)cccc2Cc2cccc(-c3ccccc3)c21", "logP": 3.99}

---

# ASSAY NOTES: method code SF-RC, from DOI: 10.1016/s0024-3205(01)01232-2
# CONDITION SUMMARY: pH 7.4
OBSERVATION TYPE: logD

{"SMILES CODE": "CNc1ccc(-c2nc3ccc(C)cc3s2)cc1", "RECORDED VALUE": 3.36}

---

Here the recorded logP is given for each entry.
# ASSAY NOTES: method code SF-HPLC, from DOI: 10.1002/ps.2780280108
OBSERVATION TYPE: logP

{"SMILES CODE": "COC(=O)c1c(C)[nH]c(-c2ccc(Cl)cn2)c1C(=O)OC", "RECORDED VALUE": 2.7}
{"SMILES CODE": "COC(=O)c1c(C)[nH]c(-c2cccc(Cl)n2)c1C(=O)OC", "RECORDED VALUE": 2.65}

---

OBSERVATION TYPE: logP

{"SMILES CODE": "O=C(Cn1ccc2cc(C(=O)O)ccc21)Oc1ccc(-c2ccccc2)cc1", "RECORDED VALUE": 3.2}
{"SMILES CODE": "CCCCCCCCc1ccc(OC(=O)Cn2ccc3cc(C(N)=O)ccc32)cc1", "RECORDED VALUE": 5.5}
{"SMILES CODE": "CCCCCCCCCCOc1ccc(OC(=O)Cn2ccc3cc(C(=O)O)ccc32)cc1", "RECORDED VALUE": 7.1}
{"SMILES CODE": "NC(=O)c1ccc2c(ccn2CC(=O)Oc2ccccc2-c2ccccc2)c1", "RECORDED VALUE": 2.3}
{"SMILES CODE": "O=C(Cn1ccc2cc(C(=O)O)ccc21)Oc1cccc(-c2ccccc2)c1", "RECORDED VALUE": 3.1}

---

# ASSAY NOTES: method code SF-SF, from DOI: 10.1016/j.ejps.2010.09.003, PMID: 20854904
# CONDITION SUMMARY: pH 10.0

{"SMILES CODE": "CN1CCN(CCC(=O)c2ccccc2)CC1", "logD": 1.12}

---

# ASSAY NOTES: method code SF-RC, from DOI: 10.1016/0378-5173(86)90124-9

{"SMILES CODE": "CCCCC[C@H](O)/C=C/[C@@H]1[C@@H](C/C=C\\CCCC(=O)OCc2ccccc2)[C@@H](O)C[C@H]1O", "logP": 4.11}

---

# ASSAY NOTES: method code SF-HPLC, from DOI: 10.1016/0378-5173(88)90220-7
# CONDITION SUMMARY: pH 7.4

{"SMILES CODE": "CC(=O)N(C)S(=O)(=O)c1ccc(C)cc1", "logD": 1.73}
